Reference for the values: ChEMBL document CHEMBL1961873

Target: Tyrosine-protein kinase BTK (Homo sapiens) (UniProt Q06187);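 note: values are mean percent inhibition of BTK across replicate measurements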
Sequence (Q06187 whole entry): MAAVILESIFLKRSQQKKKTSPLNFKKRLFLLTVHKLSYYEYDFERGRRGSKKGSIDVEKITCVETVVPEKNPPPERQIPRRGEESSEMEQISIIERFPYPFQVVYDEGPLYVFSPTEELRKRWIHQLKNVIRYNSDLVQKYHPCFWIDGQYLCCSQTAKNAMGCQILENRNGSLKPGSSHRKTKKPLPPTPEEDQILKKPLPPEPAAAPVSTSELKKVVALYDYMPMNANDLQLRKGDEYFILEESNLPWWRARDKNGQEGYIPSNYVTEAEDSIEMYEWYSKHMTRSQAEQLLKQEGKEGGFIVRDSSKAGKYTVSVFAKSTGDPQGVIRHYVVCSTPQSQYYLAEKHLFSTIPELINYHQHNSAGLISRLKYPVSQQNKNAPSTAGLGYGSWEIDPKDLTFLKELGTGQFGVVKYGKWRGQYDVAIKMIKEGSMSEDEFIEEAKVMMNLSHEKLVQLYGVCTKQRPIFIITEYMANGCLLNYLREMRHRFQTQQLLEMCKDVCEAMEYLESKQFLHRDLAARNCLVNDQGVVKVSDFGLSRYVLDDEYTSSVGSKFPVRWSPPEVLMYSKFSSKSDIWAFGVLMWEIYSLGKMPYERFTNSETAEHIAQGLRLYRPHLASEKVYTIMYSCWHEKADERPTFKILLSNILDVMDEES
Details: at 1 µM
observable: inhibition
Field: value (include unit after the number)

Below, 4 molecules whose answers are already recorded.
Query: # query: inhibition of entry "NS(=O)(=O)c1ccc(-c2cc3ccncc3cc2OCc2ccccc2)cc1"
Result: -0.08%

Query: Which measured inhibition value corresponds to "CCS(=O)(=O)c1ccc(OC)c(Nc2ncc(-c3cccc(OC)c3)o2)c1" ?
Result: 21.6%

Query: Looking for the measured inhibition of "Nc1nccc(-c2c(-c3ccc(F)cc3)nn3cc(C(F)(F)F)ccc23)n1" , can you help?
Result: 0.4%

Query: Fill blank: measured inhibition of the molecule "NS(=O)(=O)c1cccc(Nc2cc(-c3ccc(F)cc3)n[nH]2)c1" is ____.
Result: 0.11%

Record inhibition for all entries; do not skip any.
1. COC(=O)c1cncc(/C=C/c2c(C)cc(O)cc2C)c1
2. COc1cccc(-n2ncc3c(N/N=C/c4ccc(S(C)(=O)=O)cc4)ncnc32)c1

Result:
["2.92%", "-3.39%"]

State the recorded inhibition for every item in the following list.
1. COc1cccc(-n2nc(C)c3c(N/N=C(\C)c4ccncc4)ncnc32)c1
2. O=C1Nc2ccc(-c3cccnc3)cc2C1=Cc1cc(Br)c(O)c(Br)c1
3. Cc1ccc(Nc2ccnc(Nc3cccc(C(N)=O)c3)n2)cc1O
4. CC(C)c1ccc(Nc2nccc(-c3cnn4ncccc34)n2)cc1
5. CS(=O)(=O)CCNCc1nc(-c2ccc3ncnc(Nc4ccc(OCc5cccc(C(F)(F)F)c5)cc4)c3c2)cs1
6. CS(=O)(=O)Nc1cccc(-c2ccc3c(NC(=O)C4CC4)n[nH]c3c2)c1
7. c1ccc(Cc2nc3ccc(Nc4ncnc5ccccc45)cc3[nH]2)cc1

Result:
1. -0.4%
2. 1.61%
3. 29.1%
4. -0.53%
5. 1.66%
6. 1.66%
7. 1.7%

Items follow; give inhibition for each.
1. N#Cc1c(NC(=O)c2ccccc2F)sc2c1CCCC2
2. COc1ccc(-c2nn3ncccc3c2-c2ccnc(Nc3cccc(C(F)(F)F)c3)n2)cc1
3. Cc1cc(Cl)cc2c1NC(=O)C2=NNc1ccc(S(N)(=O)=O)cc1
4. Cc1ccc2c(-c3ccnc(Nc4ccc5c(c4)OCCO5)n3)c(-c3ccc(C(F)(F)F)cc3)nn2n1
5. CN(C)C(=O)O[C@@H]1CN[C@@H](C#Cc2cc3ncnc(Nc4ccc(OCc5cccc(F)c5)c(Cl)c4)c3s2)C1
6. CN(C)CCCn1c(-c2nonc2N)nc2cnccc21
7. C[C@@H](Oc1cc(-n2cnc3ccc(OC[C@@H](O)CO)cc32)sc1C(N)=O)c1ccccc1Cl
8. CCn1c(-c2nonc2N)nc2c(C#CC(C)(C)O)nc(OCCNC)cc21

Result:
1: -0.23%; 2: 1.7%; 3: 0.33%; 4: 1.71%; 5: 1.84%; 6: 0.12%; 7: -0.5%; 8: -0.61%
